Below, IC50 values reported for Proto-oncogene tyrosine-protein kinase Src (Homo sapiens) across several publications.

- COc1cc(N2C(=O)Nc3c(C(=O)Nc4ccc(CN5CCCC5)cc4)sc4ncnc2c34)c(Cl)cc1Cl: 4.15 µM
- C=CC(=O)Nc1ccc2c(c1)ncn2-c1ccccc1: > 50 µM

response.value for Nc1ccc(F)c(C(=O)c2c[nH]c3ncc(-c4cccnc4)cc23)c1F (field: IC50) = ≤ 10 µM

response.value for C=CC(=O)N1CC2C(C#Cc3c(-c4cccc5c4OC(F)(F)O5)c4c(N)ncnc4n3C)C2C1 (centres unmarked) (field: IC50) = 1 to 10 µM

response.value for O=C(Nc1ccc(CN2CCCCC2)cc1)c1sc2ncnc3c2c1NC(=O)N3c1ccc2c(ccn2Cc2cccc(F)c2)c1 (field: IC50) = > 200 µM

response.value for Cc1ccc(N)cc1C(=O)Nc1cnc2[nH]c(-c3ccccc3)nc2c1 (field: IC50) = 0.135 µM

response.value for Cc1cnc2[nH]cc(C(=O)c3c(F)ccc(NS(=O)(=O)c4cccc(F)c4)c3F)c2c1 (field: IC50) = ≤ 10 µM

response.value for O=C(c1ccccc1F)c1c[nH]c2ncc(-c3ccsc3)cc12 (field: IC50) = ≤ 10 µM

====

Below, IC50 values reported for Proto-oncogene tyrosine-protein kinase Src (Homo sapiens, UniProt P12931) across several publications.

Worked examples follow.
- C#Cc1cc(Nc2nccc(Oc3ccc(NC(=O)Nc4cc(C(C)C)nn4C)c4ccccc34)n2)cc(C(=O)NCCN2CCOCC2)c1: 0.008 µM
- COc1cc(Nc2ncnc(-n3c(Nc4ccc5[nH]ccc5c4)nc4ccccc43)n2)cc(OC)c1OC: > 8.85 µM
- COc1cccc(Cn2c(-c3ccccc3C)cc3cnc(Nc4ccc(N5CCN(C)CC5)cc4)nc3c2=O)c1: 0.001 to 0.5 µM

GET /values?item= O=C(c1cccc(O)c1F)c1c[nH]c2ncc(-c3cccs3)cc12 &system= Proto-oncogene tyrosine-protein kinase Src (Homo sapiens, UniProt P12931) returns IC50: ≤ 10 µM

GET /values?item= C=CC(=O)N1CC[C@@H](N2CC(C#Cc3c(-c4ccc(OC5CC5)c(OC)c4)c4c(N)ncnc4n3C)C2)[C@@H](O)C1 &system= Proto-oncogene tyrosine-protein kinase Src (Homo sapiens, UniProt P12931) returns IC50: 1 to 10 µM

GET /values?item= Cn1cc(-c2cnc3[nH]cc(C(=O)c4cc(NS(=O)(=O)c5cccc(C(F)(F)F)c5)ccc4F)c3c2)cn1 &system= Proto-oncogene tyrosine-protein kinase Src (Homo sapiens, UniProt P12931) returns IC50: ≤ 10 µM

GET /values?item= O=C(Nc1cnc2[nH]c(-c3ccc(N4CCOCC4)cc3)nc2c1)c1ccccc1Cl &system= Proto-oncogene tyrosine-protein kinase Src (Homo sapiens, UniProt P12931) returns IC50: 0.007 µM

====

Below, log10(IC50) values reported for UniProt P12931 across several publications.
Please be aware that the numbers have been log10-transformed from IC50 in nM.

* COCCOCCOCCOc1cc(Nc2nccc(Oc3ccc(NC(=O)Nc4cc(C(C)(C)C)nn4-c4cccc(CP(C)(C)=O)c4)c4ccccc34)n2)cc(OC)c1 | 0.30
* O=C(Nc1cnc(Nc2cccnc2)nc1)c1cc(Nc2ccc3ccccc3n2)ccc1Cl | 2.66

GET /values?item= CNC(=O)c1ccc(Nc2ncc3c(n2)CCN(c2cc(NC(=O)c4cccc(C(F)(F)F)c4)ccc2C)C3)cn1 &system= UniProt P12931 returns log10(IC50): 0.60

GET /values?item= COc1cc(Nc2cc(Oc3ccc(NC(=O)Nc4cc(C(C)(C)C)cc(CNC(C)=O)c4OC)c4ccccc34)ccn2)cc(C(=O)NCCN2CC[S+]([O-])CC2)c1 &system= UniProt P12931 returns log10(IC50): 1.15
